Tested on: BAEC
Assay type: cell-based, bovine
Details: assay as for C6-SM, Table 1
measurement_label: Effect on doxorubicin uptake (in words)

molecule="CCCCCCCCCCCCC/C=C/[C@@H](O)[C@H](COP(=O)(O)O)NC(=O)CCCCCCC [C8-ceramide 1-phosphate, C8-ceramide-1-phosphate]" recorded_result="little or no effect"
molecule="CCCCCCCCCCCCC/C=C/C(O)C(COP(=O)([O-])OCC[N+](C)(C)C)NC(C)=O (centres unmarked)" recorded_result="moderate effect"
molecule="CCCCCCCCCCCCC/C=C/[C@@H](O)[C@H](CO)NC(=O)CCCCC [C6-ceramide]" recorded_result="little or no effect"
molecule=CCCCCCCCCCCCC/C=C/[C@@H](O)[C@@H](N)COP(=O)([O-])OCC[N+](C)(C)C recorded_result="moderate effect"

###

System: BAEC
Test: Cellular uptake of fluorescent drugs and probes with or without C6-SM
Format: cell-based, bovine
Conditions: 10 μM C6-SM, 60 min
measurement_label: Sensitivity towards C6-SM uptake enhancement

molecule="CC[C@@]1(O)C(=O)OCc2c1cc1n(c2=O)Cc2cc3c(CN(C)C)c(O)ccc3nc2-1 [topotecan]" recorded_result="C6-SM sensitive"
molecule="COc1cccc2c1C(=O)c1c(O)c3c(c(O)c1C2=O)C[C@@](O)(C(=O)CO)C[C@@H]3O[C@H]1C[C@H](N)[C@@H](O)[C@H](C)O1 [epirubicin]" recorded_result="C6-SM sensitive"
